# Test system: Saccharomyces cerevisiae BY4741 SeMeCo community
# Experiment Description: z-score of subpopulation abundance vs DMSO median, subpopulation auxotrophic for HUM; higher = larger share of this subpopulation than in DMSO controls
# Setup Conditions: 10 µM; 24 h; SM minimal medium; subpopulation (auxotrophy): HUM
Counter-ions that a name gives are not always drawn.
Measurement Label: z-score of subpopulation abundance

INSERT INTO results (compound, measurement_label, assay_result) VALUES
  ('CN1C[C@@H]2C[C@H]1CN2c1cc2c(cc1F)c(=O)c(C(=O)O)cn2C1CC1 [Danofloxacin Mesylate]', 'z-score of subpopulation abundance', -0.05),
  ('CCCCCOc1ccc(-c2cc(-c3ccc(C(=O)N[C@H]4C[C@@H](O)[C@@H](O)NC(=O)[C@@H]5[C@@H](O)[C@@H](C)CN5C(=O)[C@H]([C@H](O)CC(N)=O)NC(=O)[C@H]([C@H](O)[C@@H](O)c5ccc(O)c(OS(=O)(=O)O)c5)NC(=O)[C@@H]5C[C@@H](O)CN5C(=O)[C@H]([C@@H](C)O)NC4=O)cc3)no2)cc1 [Micafungin Sodium]', 'z-score of subpopulation abundance', 13.9),
  ('C=CC[N+]1([C@H]2C[C@H]3[C@@H]4CC[C@H]5C[C@H](O)[C@@H](N6CCOCC6)C[C@]5(C)[C@H]4CC[C@]3(C)[C@H]2OC(C)=O)CCCC1 [Rocuronium Bromide]', 'z-score of subpopulation abundance', -1.09),
  ('CCC[C@@H]1C[C@@H](C(=O)N[C@@H]([C@H]2O[C@H](SC)[C@H](O)[C@@H](O)[C@H]2O)[C@H](C)Cl)N(C)C1 [Clindamycin HCl]', 'z-score of subpopulation abundance', -0.28),
  ('CC(=O)NO [Acetohydroxamic acid]', 'z-score of subpopulation abundance', 0.08),
  ('CO/N=C(\C(=O)N[C@@H]1C(=O)N2C(C(=O)O)=C(CSc3nnnn3C)CS[C@H]12)c1csc(N)n1 [Cefmenoxime hydrochloride]', 'z-score of subpopulation abundance', -0.02),
  ('CCC1(c2ccccc2)C(=O)NCNC1=O [Primidone]', 'z-score of subpopulation abundance', 0.42);

====

Reported z-score of subpopulation abundance values for the following molecules.
# System: Saccharomyces cerevisiae BY4741 SeMeCo community
# Experiment Description: z-score of subpopulation abundance vs DMSO median, subpopulation auxotrophic for HLUM; higher = larger share of this subpopulation than in DMSO controls
# Setup Conditions: 10 µM; 24 h; SM minimal medium; subpopulation (auxotrophy): HLUM
Counter-ions that a name gives are not always drawn.
Measurement Label: z-score of subpopulation abundance

INSERT INTO results (molecule, measurement_label, assay_result) VALUES
  ('CC[C@H]1OC(=O)C[C@@H](O)[C@H](C)[C@@H](O[C@@H]2O[C@H](C)[C@@H](O)[C@H](N(C)C)[C@H]2O)[C@@H](CCN2C[C@H](C)C[C@H](C)C2)C[C@@H](C)C(=O)/C=C/C(C)=C/[C@@H]1CO[C@@H]1O[C@H](C)[C@@H](O)[C@@H](OC)[C@H]1OC [Tilmicosin]', 'z-score of subpopulation abundance', 0.67),
  ('Cc1nc2n(c(=O)c1CCN1CCC(c3noc4cc(F)ccc34)CC1)CCCC2O (stereo not given)', 'z-score of subpopulation abundance', -0.53),
  ('Nc1nnc(-c2cccc(Cl)c2Cl)c(N)n1', 'z-score of subpopulation abundance', 1.58),
  ('CC1(C)S[C@@H]2[C@H](NC(=O)[C@H](N)c3ccc(O)cc3)C(=O)N2[C@H]1C(=O)O [Amoxicillin Sodium]', 'z-score of subpopulation abundance', -0.2),
  ('CN(C)CCC=C1c2ccccc2CCc2ccccc21 [Amitriptyline HCl]', 'z-score of subpopulation abundance', -0.81),
  ('CO[C@@H]1[C@@H](O[C@@H]2O[C@H](C)[C@@H](O[C@H]3C[C@@](C)(O)[C@@H](O)[C@H](C)O3)[C@H](N(C)C)[C@H]2O)[C@@H](CC=O)C[C@@H](C)[C@@H](O[C@H]2CC[C@H](N(C)C)[C@@H](C)O2)/C=C/C=C/C[C@@H](C)OC(=O)C[C@H]1OC(C)=O', 'z-score of subpopulation abundance', 1.07),
  ('CCn1cc(C(=O)O)c(=O)c2ccc(C)nc21', 'z-score of subpopulation abundance', -0.59),
  ('CN(Cc1cnc2nc(N)nc(N)c2n1)c1ccc(C(=O)N[C@@H](CCC(=O)O)C(=O)O)cc1 [Methotrexate disodium]', 'z-score of subpopulation abundance', 19.8),
  ('CC(=O)[O-].[K+] [Potassium acetate]', 'z-score of subpopulation abundance', -0.44),
  ('CC(C)Cc1ccc(C(C)C(=O)O)cc1 (stereo not given) [Ibuprofen Lysine]', 'z-score of subpopulation abundance', -1.27),
  ('CC[C@H]1OC(=O)[C@H](C)[C@@H](O[C@H]2C[C@@](C)(OC)[C@@H](O)[C@H](C)O2)[C@H](C)[C@@H](O[C@@H]2O[C@H](C)C[C@H](N(C)C)[C@H]2O)[C@](C)(O)C[C@@H](C)C(=O)[C@H](C)[C@@H](O)[C@]1(C)O', 'z-score of subpopulation abundance', 0.28),
  ('N#Cc1ccc2[nH]cc(CCCCN3CCN(c4ccc5oc(C(N)=O)cc5c4)CC3)c2c1 [Vilazodone]', 'z-score of subpopulation abundance', 0.53),
  ('CCN(CC)CCOc1ccc(C(=C(Cl)c2ccccc2)c2ccccc2)cc1 [Clomifene citrate]', 'z-score of subpopulation abundance', 0.41),
  ('CCOC(=O)c1c(CSc2ccccc2)n(C)c2cc(Br)c(O)c(CN(C)C)c12 [Arbidol HCl]', 'z-score of subpopulation abundance', 0.15),
  ('CCCCCCCCOc1ccccc1C(=O)Nc1ccc(C(=O)OCC[N+](C)(CC)CC)cc1 [Otilonium Bromide]', 'z-score of subpopulation abundance', 12.2),
  ('CC[C@H]1OC(=O)[C@H](C)[C@@H](O[C@H]2C[C@@](C)(OC)[C@@H](O)[C@H](C)O2)[C@H](C)[C@@H](O[C@@H]2O[C@H](C)C[C@H](N(C)C)[C@H]2O)[C@](C)(O)C[C@@H](C)CN(C)[C@H](C)[C@@H](O)[C@]1(C)O [Azithromycin]', 'z-score of subpopulation abundance', 0.36),
  ('Cc1ccc(O)c([C@H](CCN(C(C)C)C(C)C)c2ccccc2)c1 [Tolterodine tartrate]', 'z-score of subpopulation abundance', -0.2),
  ('O=C1C(CC[S+]([O-])c2ccccc2)C(=O)N(c2ccccc2)N1c1ccccc1 (racemic) [(+/-)-Sulfinpyrazone]', 'z-score of subpopulation abundance', -0.47),
  ('CCCCCCCCCC(=O)N[C@@H](Cc1c[nH]c2ccccc12)C(=O)N[C@H](CC(N)=O)C(=O)N[C@@H](CC(=O)O)C(=O)N[C@@H]1C(=O)NCC(=O)N[C@@H](CCCN)C(=O)N[C@@H](CC(=O)O)C(=O)N[C@H](C)C(=O)N[C@@H](CC(=O)O)C(=O)NCC(=O)N[C@H](CO)C(=O)N[C@@H]([C@H](C)CC(=O)O)C(=O)N[C@@H](CC(=O)c2ccccc2N)C(=O)O[C@@H]1C', 'z-score of subpopulation abundance', -0.99),
  ('COc1cc2c(cc1OC)C(=O)C(CC1CCN(Cc3ccccc3)CC1)C2 (stereo not given) [Donepezil]', 'z-score of subpopulation abundance', 0.22),
  ('CC1(C)S[C@@H]2[C@H](NC(=O)[C@H](N)c3ccccc3)C(=O)N2[C@H]1C(=O)OCOC(=O)[C@@H]1N2C(=O)C[C@H]2S(=O)(=O)C1(C)C [Sultamicillin Tosylate]', 'z-score of subpopulation abundance', -0.64),
  ('CCn1cc(C(=O)O)c(=O)c2cnc(N3CCNCC3)nc21', 'z-score of subpopulation abundance', 0.28),
  ('NCCNc1ccc(NCCN)c2c1C(=O)c1ccncc1C2=O [Pixantrone Maleate]', 'z-score of subpopulation abundance', -1.46),
  ('CN(C/C=C/C#CC(C)(C)C)Cc1cccc2ccccc12 [Terbinafine HCl]', 'z-score of subpopulation abundance', 1),
  ('O=C(CCCN1CCN(c2ccccn2)CC1)c1ccc(F)cc1', 'z-score of subpopulation abundance', 0.31);

====

# Tested on: Saccharomyces cerevisiae BY4741 SeMeCo community
# Experiment Description: z-score of subpopulation abundance vs DMSO median, subpopulation auxotrophic for L; higher = larger share of this subpopulation than in DMSO controls
# Setup Conditions: 10 µM; 24 h; SM minimal medium; subpopulation (auxotrophy): L
Structures can show the parent of a compound that is named as a salt.
Would you please tag the item criterion met when its z-score of subpopulation abundance is -0.06 or above, and criterion not met when it is below?

INSERT INTO results (compound, classification) VALUES
  ('Nc1c(CC(=O)O)cccc1C(=O)c1ccc(Br)cc1 [Bromfenac Sodium]', 'criterion not met'),
  ('CC1(C)S[C@@H]2[C@H](NC(=O)[C@H](N)c3ccc(O)cc3)C(=O)N2[C@H]1C(=O)O', 'criterion not met'),
  ('Cn1c(=O)c2[nH]cnc2n(C)c1=O', 'criterion met'),
  ('CCOc1cc(N)c([N+](=O)[O-])cc1C(=O)NC1CCN(CC2CC=CCC2)CC1 (stereo not drawn) [Cinitapride Hydrogen Tartrate]', 'criterion not met'),
  ('CCc1nc(N)nc(N)c1-c1ccc(Cl)cc1', 'criterion not met'),
  ('C[C@@H](O)[C@H]1C(=O)N2C(C(=O)OCOC(=O)C(C)(C)C)=C(SC3CN(C4=NCCS4)C3)[C@H](C)[C@H]12', 'criterion met'),
  ('O=C1CN(/N=C/c2ccc([N+](=O)[O-])o2)C(=O)N1', 'criterion not met');
